# method.description: soluble on expression in E. coli; label from the status in PepcDB or PDB records
endpoint.label: soluble on expression in E. coli

>>> value_measured("EDLGYFCVDNLPPSLLPKFLELMKESNSKMSKVALVMDLRGREFFDRLIEALDEMAENPWITPRILFLDAKDSILVTRYKETRRSHPLAATGLPLEGIALERELLEELKGRSQIIYDTSDMKPRDLREKIVKHFATNQGETFTVNVMSFGFKYGIPIDADLVFDVRFLPNPYYIESMRPLTGKDKEVSSYVMKWNETQKFNEKLIDLLSFMLPSYKREGKSQVVIAIGCTGGQHRSVTLAENLADYFKKDYYTHVTHRDIEKR")
"not soluble"
>>> value_measured("MGSDKIHHHHHHMSLQFDHETLGQRVLFGSGEAAQNLAAEISRLDAKNVMVVAGDFELPMARQVAADIDVKVWHSNVVMHVPIETAEEARSVAKENDIDVVVCVGGGSTTGLAKAIAMTTALPIIAVPTTYAGSEATNVWGLTEAARKTTGVDNKVLPVTVIYDSALTMSLPVEMSVASGLNGLAHCIDSLWGPKADPINAAMAAEGIRALSAGLPKIVADAQDVDGRDEALYGAYLAAVSFASAGSGLHHKICHVLGGTFNLPHAQTHATVLPYVLAFNAPYAPQAEQRAAAAFGSATALEGLQQLRAQVGAPQRLSDYGFTAAGIPEAVEIILEKVPANNPRTVTEENLTALLTTALNGDDPATLN")
"not soluble"

Values from the DeepSol protein solubility set
